Every entry's value here was drawn from ChEMBL document CHEMBL2375237.

EXPERIMENTAL_DETAILS: Terminal half life in mouse
Format: ADME, organism-based
EXPERIMENTAL_CONDITIONS: in vivo, read-out: beta t1/2 (converted)
READOUT_KIND: half-life (h)

[[record]]
structure_string = "NC(=O)c1c(Nc2ccc(I)cc2F)cc(F)cc1Oc1cccc(NS(N)(=O)=O)c1"
observed = 34


====

The entries below are paired with their reported bioavailability.
EXPERIMENTAL_DETAILS: Oral bioavailability in rat at 1 mg/kg
Assay type: ADME, organism-based
EXPERIMENTAL_CONDITIONS: in vivo
READOUT_KIND: bioavailability (%)

[[record]]
structure_string = "NC(=O)c1c(Nc2ccc(I)cc2F)cc(F)cc1OCC[C@@H](O)CO"
readout_kind = "bioavailability"
observed = 70

[[record]]
structure_string = "O=C(NOC[C@H](O)CO)c1ccc(F)c(F)c1Nc1ccc(I)cc1F"
readout_kind = "bioavailability"
observed = 104

[[record]]
structure_string = "NC(=O)c1c(Nc2ccc(I)cc2F)cc(F)cc1Oc1cccc(NS(N)(=O)=O)c1"
readout_kind = "bioavailability"
observed = 62

